All values here come from ChEMBL document CHEMBL5108024.

# System: Staphylococcus aureus
# experiment-notes: Inhibition of EtBr efflux in ciprofloxacin-resistant Staphylococcus aureus 1199B overexpressing norA and harboring A116E grlA mutant assessed as reduction in fluorescence intensity at 50 uM measured for 5 mins by microplate reader analysis relative to control
# Assay type: functional
experimental-endpoint: inhibition (%)
State just the number; it will be interpreted in %.

{"structure-as-smiles": "CCCOc1ccc(-c2cc(OCCN(CC)CC)c3cc(OCCC)ccc3n2)cc1", "subject-of-test": "Staphylococcus aureus", "reported-value": 67.1}
{"structure-as-smiles": "CCCOc1ccc(-c2cc(OCCN3CCCCC3)c3cc(Nc4ccccc4)ccc3n2)cc1", "subject-of-test": "Staphylococcus aureus", "reported-value": 84.2}
{"structure-as-smiles": "CCCOc1ccc(-c2cc(OCCN3CCCCCC3)c3cc(OC(F)(F)F)ccc3n2)cc1", "subject-of-test": "Staphylococcus aureus", "reported-value": 84.9}

The compound CCCOc1ccc(-c2cc(OCCN3CCCCC3)c3cc(OCCC)ccc3n2)cc1 showed inhibition equal to 73.9

The compound CCCOc1ccc(-c2cc(OCCN3CCCCC3)c3cc(SC)ccc3n2)cc1 showed inhibition equal to 79.9

* * *

# experiment-notes: Cytotoxicity against human THP-1 cells assessed as cell viability incubated for 24 hrs by MTT assay
# Assay type: toxicity, cell-based
experimental-endpoint: CC50 at 24 h

// below: answered molecules
{"structure-as-smiles": "CCCOc1ccc(-c2cc(OCCN3CCCCC3)c3cc(Oc4ccccc4)ccc3n2)cc1", "reported-value": "> 3.13 µg/mL"}
{"structure-as-smiles": "CCCOc1ccc(-c2cc(OCCN3CCCCC3)c3cc(OC(F)F)ccc3n2)cc1", "reported-value": "> 3.13 µg/mL"}
{"structure-as-smiles": "CCCOc1ccc(-c2cc(OCCN3CCCCCC3)c3cc(C(F)(F)F)ccc3n2)cc1", "reported-value": "> 3.13 µg/mL"}
{"structure-as-smiles": "CCCOc1ccc(-c2cc(OCCN(CC)CC)c3cc(Oc4ccccc4)ccc3n2)cc1", "reported-value": "> 3.13 µg/mL"}
{"structure-as-smiles": "CCCOc1ccc(-c2cc(OCCN3CCCCCC3)c3cc(OCCC)ccc3n2)cc1", "reported-value": "> 3.13 µg/mL"}

Query molecule follows.
The molecule CCCOc1ccc(-c2cc(OCCN3CCCCCC3)c3cc(SC)ccc3n2)cc1 showed CC50 at 24 h equal to > 3.13 µg/mL

* * *

# Tested on: Staphylococcus aureus
# experiment-notes: Inhibition of EtBr efflux in ciprofloxacin-resistant Staphylococcus aureus 1199B overexpressing norA and harboring A116E grlA mutant assessed as reduction in fluorescence intensity at 10 uM measured for 5 mins by microplate reader analysis relative to control
# Format: functional
// label = Met if inhibition is not less than 70%, otherwise Not met

Look over these answered cases.
{"structure-as-smiles": "CCCOc1ccc(-c2cc(OCCN3CCCCC3)c3cc(OC(F)F)ccc3n2)cc1", "class-label": "Met"}
{"structure-as-smiles": "CCCOc1ccc(-c2cc(OCCN3CCCCCC3)c3cc(Oc4ccccc4)ccc3n2)cc1", "class-label": "Not met"}

Here is another molecule to look at.
Incoming: State whether the measured inhibition reaches 70%, counting equality as reaching it, for CCCOc1ccc(-c2cc(OCCN3CCCCC3)c3cc(-c4ccccc4)ccc3n2)cc1
Outgoing: Not met

* * *

# experiment-notes: Selectivity index, ratio of CC50 for cytotoxicity against human THP-1 cells to MPC for synergistic antibacterial activity against Staphylococcus aureus 1199B overexpressing norA and harboring A116E grlA mutant assessed as four fold minimum potentiating concentration
# Assay type: toxicity, cell-based
experimental-endpoint: selectivity ratio

The molecule CCCOc1ccc(-c2cc(OCCN3CCCCCC3)c3cc(OCCC)ccc3n2)cc1 showed selectivity ratio equal to > 15

* * *

# System: Staphylococcus aureus
# experiment-notes: Inhibition of EtBr efflux in ciprofloxacin-resistant Staphylococcus aureus 1199B overexpressing norA and harboring A116E grlA mutant assessed as reduction in fluorescence intensity at 50 uM measured for 5 mins by microplate reader analysis relative to control
# Format: functional
// label = True if inhibition is not less than 80%, otherwise False

{"structure-as-smiles": "CCCOc1ccc(-c2cc(OCCN3CCCCC3)c3cc(OC)ccc3n2)cc1", "class-label": "True"}
{"structure-as-smiles": "CCCOc1ccc(-c2cc(OCCN(CC)CC)c3cc(Br)ccc3n2)cc1", "class-label": "False"}
{"structure-as-smiles": "CCCOc1ccc(-c2cc(OCCN3CCCCCC3)c3cc(OC(C)C)ccc3n2)cc1", "class-label": "False"}

Here is another compound to look at.
Incoming: State whether the measured inhibition reaches 80%, counting equality as reaching it, for CCCOc1ccc(-c2cc(OCCN(CC)CC)c3cc(C(F)(F)F)ccc3n2)cc1
Outgoing: False

* * *

Below: a set of entries, each annotated with reported MIC.
# System: Staphylococcus aureus
# experiment-notes: Antibacterial activity against ciprofloxacin-resistant Staphylococcus aureus 1199B overexpressing norA and harboring A116E grlA mutant assessed as inhibition of bacterial growth by broth microdilution method
# Assay type: functional

The compound CCCOc1ccc(-c2cc(OCCN3CCCCC3)c3cc(OC)ccc3n2)cc1 showed MIC equal to 238 µM

The compound CCCOc1ccc(-c2cc(OCCN3CCCCC3)c3cc(OC(F)(F)F)ccc3n2)cc1 showed MIC equal to > 529 µM

The compound CCCOc1ccc(-c2cc(OCCN3CCCCCC3)c3cc(Oc4ccccc4)ccc3n2)cc1 showed MIC equal to > 503 µM

The compound O=C(O)c1cn(C2CC2)c2cc(N3CCNCC3)c(F)cc2c1=O showed MIC equal to 10 µg/mL

The compound CCCOc1ccc(-c2cc(OCCN3CCCCCC3)c3cc(C#N)ccc3n2)cc1 showed MIC equal to > 582 µM

The compound CCCOc1ccc(-c2cc(OCCN(CC)CC)c3cc(OC(F)(F)F)ccc3n2)cc1 showed MIC equal to > 541 µM

The compound CCCOc1ccc(-c2cc(OCCN3CCCCCC3)c3cc(OC(F)(F)F)ccc3n2)cc1 showed MIC equal to > 512 µM

* * *

# experiment-notes: Cytotoxicity against human A549 cells assessed as cell viability at 12.5 ug/ml incubated for 24 hrs by MTT assay relative to control
# Type: toxicity, cell-based
# cond: at 12.5 µg/mL, read-out: Activity
experimental-endpoint: viability at 24 h, 12.5 ug/ml (%)
State just the number; it will be interpreted in %.

{"structure-as-smiles": "CCCOc1ccc(-c2cc(OCCN3CCCCCC3)c3cc(OCCC)ccc3n2)cc1", "reported-value": 84.5}

The compound CCCOc1ccc(-c2cc(OCCN3CCCCC3)c3cc(OC(F)F)ccc3n2)cc1 showed viability at 24 h, 12.5 ug/ml equal to 100

The compound CCCOc1ccc(-c2cc(OCCN(CC)CC)c3cc(Oc4ccccc4)ccc3n2)cc1 showed viability at 24 h, 12.5 ug/ml equal to 84.8

The compound CCCOc1ccc(-c2cc(OCCN3CCCCCC3)c3cc(C(F)(F)F)ccc3n2)cc1 showed viability at 24 h, 12.5 ug/ml equal to 77.1

The compound CCCOc1ccc(-c2cc(OCCN3CCCCC3)c3cc(Oc4ccccc4)ccc3n2)cc1 showed viability at 24 h, 12.5 ug/ml equal to 100

The compound CCCOc1ccc(-c2cc(OCCN3CCCCCC3)c3cc(SC)ccc3n2)cc1 showed viability at 24 h, 12.5 ug/ml equal to 100

* * *

# experiment-notes: Cytotoxicity against human THP-1 cells assessed as cell viability at 12.5 ug/ml incubated for 24 hrs by MTT assay relative to control
# Format: toxicity, cell-based
# cond: at 12.5 µg/mL, read-out: Activity
Entries whose viability at 24 h, 12.5 ug/ml is below 20% take 1; entries at or above 20% take 0.

{"structure-as-smiles": "CCCOc1ccc(-c2cc(OCCN3CCCCCC3)c3cc(C(F)(F)F)ccc3n2)cc1", "class-label": 0}

Incoming: Please state whether viability at 24 h, 12.5 ug/ml is below 20% for CCCOc1ccc(-c2cc(OCCN3CCCCC3)c3cc(Oc4ccccc4)ccc3n2)cc1
Outgoing: 0

Incoming: Please state whether viability at 24 h, 12.5 ug/ml is below 20% for CCCOc1ccc(-c2cc(OCCN(CC)CC)c3cc(Oc4ccccc4)ccc3n2)cc1
Outgoing: 1

Incoming: Please state whether viability at 24 h, 12.5 ug/ml is below 20% for CCCOc1ccc(-c2cc(OCCN3CCCCC3)c3cc(OC(F)F)ccc3n2)cc1
Outgoing: 1

Incoming: Please state whether viability at 24 h, 12.5 ug/ml is below 20% for CCCOc1ccc(-c2cc(OCCN3CCCCCC3)c3cc(OCCC)ccc3n2)cc1
Outgoing: 0

* * *

# experiment-notes: Cytotoxicity against human THP-1 cells assessed as cell viability at 3.13 ug/ml incubated for 24 hrs by MTT assay relative to control
# Type: toxicity, cell-based
# cond: at 3.13 µg/mL, read-out: Activity
Below: a set of entries, each annotated with reported viability at 24 h, 3.13 ug/ml.
State just the number; it will be interpreted in %.

{"structure-as-smiles": "CCCOc1ccc(-c2cc(OCCN3CCCCC3)c3cc(OC(F)F)ccc3n2)cc1", "reported-value": 67.7}

The compound CCCOc1ccc(-c2cc(OCCN(CC)CC)c3cc(Oc4ccccc4)ccc3n2)cc1 showed viability at 24 h, 3.13 ug/ml equal to 77.3

The compound CCCOc1ccc(-c2cc(OCCN3CCCCCC3)c3cc(OCCC)ccc3n2)cc1 showed viability at 24 h, 3.13 ug/ml equal to 70.3

The compound CCCOc1ccc(-c2cc(OCCN3CCCCCC3)c3cc(C(F)(F)F)ccc3n2)cc1 showed viability at 24 h, 3.13 ug/ml equal to 65.4

The compound CCCOc1ccc(-c2cc(OCCN3CCCCCC3)c3cc(SC)ccc3n2)cc1 showed viability at 24 h, 3.13 ug/ml equal to 68.8

The compound CCCOc1ccc(-c2cc(OCCN3CCCCC3)c3cc(Oc4ccccc4)ccc3n2)cc1 showed viability at 24 h, 3.13 ug/ml equal to 87.9
